biological target: T1, hRET.mmh (human, UniProt P07949 29-635, biotinylated in the ELISA of Example 4 (biot-hRET.mmh); not in the SPR of Example 3); test: SPR Biacore T200, mAb capture, 37 C
T1 construct: also called biot-hRET.mmh; soluble monomeric human RET
endpoint_name: koff
Units required after the number.

Lookup result for H4H8067P (antibody, human IgG4, V domains shown, human IgG4 Fc (H4H prefix)) VH: QVQLVESGGGVVQPGRSLRLSCVASGFTFSNYGMHWVRQAPGKGLEWVALIWYDGSNKYFADSVKGRFTISRDNSKRMMFLEMNSLRAEDTAIYYCTRDRLFDFWGQGTLVTVSS VL: AIQMTQSPSSLSASVGDRVSITCRASQDIRHDLGWFHQKPGKAPKLLIYAASTLQSGVPSRFGGSGSGTDFTLTITSLQPEDFGTYYCLQDYNYPATFGQGTRLEIK ; measured koff: 0.00116 s⁻¹

Lookup result for H4H8085P (antibody, human IgG4, V domains shown, human IgG4 Fc (H4H prefix)) VH: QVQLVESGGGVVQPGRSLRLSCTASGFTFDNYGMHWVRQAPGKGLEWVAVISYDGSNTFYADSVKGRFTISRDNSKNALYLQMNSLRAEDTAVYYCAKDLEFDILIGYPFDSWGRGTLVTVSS VL: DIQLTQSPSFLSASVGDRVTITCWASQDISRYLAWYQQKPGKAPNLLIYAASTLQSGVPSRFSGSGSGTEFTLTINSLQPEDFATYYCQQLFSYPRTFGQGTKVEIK ; measured koff: 0.000897 s⁻¹

Lookup result for H4H8083P (antibody, human IgG4, V domains shown, human IgG4 Fc (H4H prefix)) VH: QVQLVESGGGVVQPGRSLRLSCAASGFTFNNYVMHWVRQAPGKGLEWVALIWYDGSNKYYADSVKGRFTISRDNSKNALNLQMNSLRAEDTAVYFCARVSIAARNYYYGGLDVWGQGTTVTVSS VL: EIVLTQSPGTLSLSPGERATLSCRASQSVSSTYLAWYQQKPGQAPRLLIYGASSRATGIPDRFSGSGSGTDFTLTISRLEPEDFAVYYCQHYGGSPLTFGGGTKVEIK ; measured koff: 0.00255 s⁻¹
